# Test system: HT29 intrarenal xenograft, nude mice, tumor weight change
# test.details: NCI In Vivo Anticancer Drug Screen. Data for tumor model HT29;CX-1 Human Adenocarcinoma (MER+) (intrarenal inoculation) in NU/NU BALB/C (nude) mice
# measurement.context: endpoint: mean tumor weight change; dose: 50.0 mg/kg/injection; schedule: Q01DX010 (sc); vehicle: saline with Tween-80; higher = larger tumour
Results filed as inconclusive are left out.
metric: T/C

molecule=CN(C)c1nc(N(C)C)nc(N(C)C)n1 metric=T/C result="79 % of control"
molecule=CS(=O)(=O)c1ncc(Br)cn1 metric=T/C result="123 % of control"
molecule=c1ccc2c(c1)nnn1c3cnccc3nc21 metric=T/C result="246 % of control"
molecule="C1OC1CO[C@@H]1CO[C@H]2[C@@H]1OC[C@H]2OCC1CO1 (some centres undefined)" metric=T/C result="121 % of control"
